The molecules listed here are annotated with their MIC Streptococcus pneumoniae (ATCC 6301).
System: Streptococcus sp.
Assay: In vitro antibacterial evaluation: minimum inhibitory concentration (MIC), broth dilution method
Format: cell-based
Details: Streptococcus pneumoniae (ATCC 6301); 18 hours at 35° C.

For orientation, consider the following solved cases.
molecule	MIC Streptococcus pneumoniae (ATCC 6301)
N=C1NCC(C(O)C2NC(=O)C(Cc3ccc(OC4OC(CO)C(OC5OC6COC7(OC6C(O)C5O)C5CC6CC(C5)CC7C6)C(O)C4O)cc3)NC(=O)C(Cc3ccccc3)NC(=O)CNC(=O)C(CO)NC(=O)C(C(O)C3CNC(=N)N3C3OC(CO)C(O)C(O)C3O)NC2=O)N1 (stereo not shown)	<0.06 µg/mL
CC(C)CC(=O)OC1C(O)C(OC2C(CO)OC(Oc3ccc(CC4NC(=O)C(C(C)c5ccccc5)NC(=O)CNC(=O)C(CO)NC(=O)C(C(O)C5CNC(=N)N5C5OC(CO)C(O)C(O)C5O)NC(=O)C(C(O)C5CNC(=N)N5)NC4=O)cc3)C(O)C2O)OC2COC3(OC21)C1CC2CC(C1)CC3C2 (stereo not shown)	0.12 µg/mL
CC(c1ccccc1)C1NC(=O)CNC(=O)C(CO)NC(=O)C(C(O)C2CNC(=N)N2C2OC(CO)C(O)C(O)C2O)NC(=O)C(C(O)C2CNC(=N)N2)NC(=O)C(Cc2ccc(OC3OC(CO)C(OC4OC(COCC=C(c5ccccc5)c5ccccc5)C(O)C(O)C4O)C(O)C3O)cc2)NC1=O (stereo not shown)	<0.06 µg/mL

Name the recorded MIC Streptococcus pneumoniae (ATCC 6301) of the molecule listed here: COc1ccc(COCC2OC(OC3C(CO)OC(Oc4ccc(CC5NC(=O)C(C(C)c6ccccc6)NC(=O)CNC(=O)C(CO)NC(=O)C(C(O)C6CNC(=N)N6C6OC(CO)C(O)C(O)C6O)NC(=O)C(C(O)C6CNC(=N)N6)NC5=O)cc4)C(O)C3O)C(O)C(O)C2O)c2ccccc12 (stereo not shown)
<0.12 µg/mL

----------
Test system: Streptococcus sp.
Assay: In vitro antibacterial evaluation: minimum inhibitory concentration (MIC), broth dilution method
Format: cell-based
Details: Streptococcus pneumoniae (ATCC 6301); 18 hours at 35° C.
measured-property: MIC Streptococcus pneumoniae (ATCC 6301) (µg/mL)
Your answer is read as µg/mL, so omit the unit and give the number.

molecule	output-unit	MIC Streptococcus pneumoniae (ATCC 6301)
CCCCN1CC(C(O)C2NC(=O)C(C(O)C3CNC(=N)N3)NC(=O)C(Cc3ccc(OC4OC(CO)C(OC5OC6COC7(OC6C(O)C5O)C5CC6CC(C5)CC7C6)C(O)C4O)cc3)NC(=O)C(C(C)c3ccccc3)NC(=O)CNC(=O)C(CO)NC2=O)N(C2OC(CO)C(O)C(O)C2O)C1=N (stereo not shown)	µg/mL	0.25

Now for the molecule whose MIC Streptococcus pneumoniae (ATCC 6301) we want.
State MIC Streptococcus pneumoniae (ATCC 6301) on Streptococcus sp.. Entry: CCCC(C)C1OCC2OC(OC3C(CO)OC(Oc4ccc(CC5NC(=O)C(C(C)c6ccc(Cl)cc6)NC(=O)CNC(=O)C(CO)NC(=O)C(C(O)C6CNC(=N)N6C6OC(CO)C(O)C(O)C6O)NC(=O)C(C(O)C6CNC(=N)N6)NC5=O)cc4)C(O)C3O)C(O)C(O)C2O1 (stereo not shown)
0.25

----------
System: Staphylococcus sp.
Assay: In vitro antibacterial evaluation: minimum inhibitory concentration (MIC), broth dilution method
Format: cell-based
Conditions: strain GC 3053; broth dilution, 18 hours at 35° C.
measured-property: MIC Staphylococcus aureus (GC 3053) (µg/mL)
Your answer is read as µg/mL, so omit the unit and give the number.

Name the recorded MIC Staphylococcus aureus (GC 3053) of the compound listed here: CC(c1ccccc1)C1NC(=O)CNC(=O)C(CO)NC(=O)C(C(O)C2CNC(=N)N2C2OC(CO)C(O)C(O)C2O)NC(=O)C(C(O)C2CNC(=N)N2)NC(=O)C(Cc2ccc(OC3OC(CO)C(OC4OC5COC(c6cccc(Cl)c6)OC5C(O)C4O)C(O)C3O)cc2)NC1=O (centres unmarked) [Example 138]
2

----------
Tested on: Enterococcus sp.
Assay: In vitro antibacterial evaluation: minimum inhibitory concentration (MIC), broth dilution method
Assay type: cell-based
Details: broth dilution, 18 hours at 35° C.
Numbered stars: 1 amine (or outer) side, 2 acyl side, 3 side chain; on linkers, the order of the positions; unused ones are H or OH. Square brackets hold non-standard residues; d marks the D form. Peptide text beside a SMILES is read from it. * marks the point of attachment. ξ: configuration not given here. X1 = N=C1NCC(C(O)C(N[*:1])C(=O)[*:2])N1C1OC(CO)C(O)C(O)C1O; ξEnduracididine(βξ-OH,4'ξ) = N=C1NCC(C(O)C(N)C(=O)O)N1; X2 = OCC1OC(OC2C(CO)OC(*)C(O)C2O)C(O)C(O)C1O; ξCha(3ξ-Me) = CC(C1CCCCC1)C(N)C(=O)O; Cha = N[CH](CC1CCCCC1)C(=O)O
The compounds listed here are annotated with their MIC Enterococcus faecium (GC 4557).
Your answer is read as µg/mL, so omit the unit and give the number.

compound	output-unit	endpoint-result
CC(c1ccccc1)C1NC(=O)CNC(=O)C(CO)NC(=O)C(C(O)C2CNC(=N)N2C2OC(CO)C(O)C(O)C2O)NC(=O)C(C(O)C2CNC(=N)N2)NC(=O)C(Cc2ccc3oc(-c4cccc([N+](=O)[O-])c4)nc3c2)NC1=O (stereo not drawn)	µg/mL	8
CC(c1ccccc1)C1NC(=O)CNC(=O)C(CO)NC(=O)C(C(O)C2CNC(=N)N2C2OC(CO)C(O)C(O)C2O)NC(=O)C(C(O)C2CNC(=N)N2)NC(=O)C(Cc2ccc3oc(-c4ccc(N(C)C)cc4)nc3c2)NC1=O (stereo not drawn)	µg/mL	8
CC(c1ccccc1)C1NC(=O)CNC(=O)C(CO)NC(=O)C(C(O)C2CNC(=N)N2C2OC(CO)C(O)C(O)C2O)NC(=O)C(C(O)C2CNC(=N)N2)NC(=O)C(Cc2ccc3oc(C=C(c4ccccc4)c4ccccc4)nc3c2)NC1=O (stereo not drawn)	µg/mL	8
N=C1NCC(C(O)C2NC(=O)C(CC3CCCCC3)NC(=O)C(CC3CCCCC3)NC(=O)CNC(=O)C(CO)NC(=O)C(C(O)C3CNC(=N)N3C3OC(CO)C(O)C(O)C3O)NC2=O)N1 (stereo not drawn) [Example 52] (cyclo(G[Cha][Cha][ξEnduracididine(βξ-OH,4'ξ)][X1]S); configuration not given here)	µg/mL	8
CC(c1ccccc1)C1NC(=O)CNC(=O)C(CO)NC(=O)C(C(O)C2CNC(=N)N2C2OC(CO)C(O)C(O)C2O)NC(=O)C(C(O)C2CNC(=N)N2)NC(=O)C(Cc2ccc3oc(-c4ccoc4)nc3c2)NC1=O (stereo not drawn)	µg/mL	32

Now for the compound whose MIC Enterococcus faecium (GC 4557) we want.
State MIC Enterococcus faecium (GC 4557) on Enterococcus sp.. Entry: CC(C1CCCCC1)C1NC(=O)CNC(=O)C(CO)NC(=O)C(C(O)C2CNC(=N)N2C2OC(CO)C(O)C(O)C2O)NC(=O)C(C(O)C2CNC(=N)N2)NC(=O)C(Cc2ccc(OC3OC(CO)C(OC4OC(CO)C(O)C(O)C4O)C(O)C3O)cc2)NC1=O (stereo not drawn) [Example 51] (cyclo(G[ξCha(3ξ-Me)]Y(X2)[ξEnduracididine(βξ-OH,4'ξ)][X1]S); configuration not given here)
16

----------
The molecules listed here are annotated with their MIC Streptococcus pyogenes (GC 4563).
Tested on: Streptococcus sp.
Experiment: In vitro antibacterial evaluation: minimum inhibitory concentration (MIC), broth dilution method
Type: cell-based
Conditions: broth dilution, 5×10^5 CFU/mL, 18 hours at 35° C.

molecule	MIC Streptococcus pyogenes (GC 4563)
CC(c1ccccc1)C1NC(=O)CNC(=O)C(CO)NC(=O)C(C(O)C2CNC(=N)N2C2OC(CO)C(O)C(O)C2O)NC(=O)C(C(O)C2CNC(=N)N2)NC(=O)C(Cc2ccc(OC3OC(CO)C(OC4OC5COC(Cc6ccc(Cl)cc6)OC5C(O)C4O)C(O)C3O)cc2)NC1=O (centres unmarked) [Example 120]	<0.5 µg/mL

Name the recorded MIC Streptococcus pyogenes (GC 4563) of the molecule listed here: CC(c1ccccc1)C1NC(=O)CNC(=O)C(CO)NC(=O)C(C(O)C2CNC(=N)N2C2OC(CO)C(O)C(O)C2O)NC(=O)C(C(O)C2CNC(=N)N2)NC(=O)C(Cc2ccc(OC3OC(CO)C(OC4OC5COC(CC6CCCCC6)OC5C(O)C4O)C(O)C3O)cc2)NC1=O (centres unmarked) [Example 122]
<0.06 µg/mL

----------
System: Streptococcus sp.
Test: In vitro antibacterial evaluation: minimum inhibitory concentration (MIC), broth dilution method
Format: cell-based
Conditions: Streptococcus pyogenes (GC 4563); broth dilution, 18 hours at 35° C.
measured-property: MIC Streptococcus pyogenes (GC 4563) (µg/mL)
Your answer is read as µg/mL, so omit the unit and give the number.

Name the recorded MIC Streptococcus pyogenes (GC 4563) of the compound listed here: CC(c1ccccc1)C1NC(=O)CNC(=O)C(CO)NC(=O)C(C(O)C2CN(Cc3ccc(C(C)(C)C)cc3)C(=N)N2C2OC(CO)C(O)C(O)C2O)NC(=O)C(C(O)C2CNC(=N)N2)NC(=O)C(Cc2ccc(OC3OC(CO)C(OC4OC5COC6(OC5C(O)C4O)C4CC5CC(C4)CC6C5)C(O)C3O)cc2)NC1=O (centres unmarked)
1
